Answer each item with its documented bioavailability.
Assay: Pharmacokinetic experiment in SD rats
Assay type: in vivo
Settings: male, Sprague-Dawley, rat, plasma, po, 10 mg/kg; read-out: Oral bioavailability, F %
Answers are plain numbers, in %.

C=C(F)C(=O)N1CCN(c2nc(OC[C@@]34CCCN3C[C@H](F)C4)nc3c(F)c(-c4cccc5ccc(F)c(Cl)c45)ccc23)C[C@@H]1CC#N [Example 914]: 28.5
C=C(F)C(=O)N1CCN(c2nc(OC[C@@]34CCCN3C[C@H](F)C4)nc3c(F)c(-c4cccc5cccc(Cl)c45)ccc23)C[C@@H]1CC#N [Example 904]: 30.3
C=CC(=O)N1CCN(c2nc(OC[C@@H]3CCCN3C)nc3c(F)c(-c4cccc5cccc(Cl)c45)ccc23)C[C@@H]1CC#N [Example 358]: 2.35
C=CC(=O)N1CCN(c2nc(OC[C@@]34CCCN3C[C@H](F)C4)nc3c(F)c(-c4cccc5cccc(Cl)c45)ccc23)C[C@@H]1CC#N [Example 367]: 11.6
C=C(F)C(=O)N1CCN(c2nc(OC[C@@]34CCCN3C[C@H](F)C4)nc3c(F)c(-c4cccc5c4CC4CC54)ncc23)C[C@@H]1CC#N (single isomer, unassigned) [Example 879]: 16.9

Batch of 2 molecules: report bioavailability for each.
1. C=C(F)C(=O)N1CCN(c2nc(OC[C@@H]3CCCN3C)nc3c(F)c(-c4cccc5cccc(Cl)c45)ccc23)C[C@@H]1CC#N [Example 903]
2. C=C(F)C(=O)N1CCN(c2nc(OC[C@@]34CCCN3C[C@H](F)C4)nc3c(F)c(-c4cccc5c4CC4CC54)ccc23)C[C@@H]1CC#N (single isomer, unassigned) [Example 887]

A.
1. 28.6
2. 25.9

---

Test system: H358 cells
Assay: Cell activity experiment: activity test of H358 cells (MTT, 5 days)
Assay type: cell-based
Details: Homo sapiens, NCI-H358, 120 h, 5 days incubation, absorbance 492 nm
Method: Example: Cell Activity Experiment 1. Cells: H358 purchased from Shanghai EK-Bioscience Biotechnology Co., Ltd. 2. Reagents: RPMI 1640 medium, Tryple, MTT (5 mg/mL), DMSO, and DPBS. 3. Instruments: an incubator at 37° C. and 5% CO2, a UTRAO microplate reader, a biosafety cabinet, a cell counting plate, and an Optec optical microscope. 4. Experimental consumables: 96-well plate Item No.: 3599, and 96-well round-bottomed dispensing plate. Experimental Steps of Activity Test of H358 Cells: 1. […]
pIC50: −log10 of the molar value.
Quick rule: pIC50 of at least 8 means class 1, below that means class 0.

Worked cases, answers included:
C=CC(=O)N1CCN(c2nc(OC[C@@H]3C[C@@H](F)CN3C)nc3c(F)c(-c4cccc5ccc(F)c(Cl)c45)ccc23)C[C@@H]1CC#N: class 1
C=CC(=O)N1CCN(c2nc(OC[C@@H]3CCCN3C)nc3c(F)c(-c4cccc5ccc(F)c(Cl)c45)ccc23)C[C@@H]1CC#N: class 1
C=CC(=O)N1CCN(c2nc(OC[C@@H]3C[C@@H](F)CN3C)nc3cc(-c4cccc5c4CCCC5)c(Cl)cc23)C[C@@H]1CC#N: class 0

Pending compound:
Q. Record "C=C(F)C(=O)N1CCN(c2nc(OC[C@@H]3CCCN3C)nc3c(F)c(-c4cccc5c4SCCC5)ncc23)C[C@@H]1CC#N" ; criterion: pIC50 no lower than 8. Met?
A. class 0

---

Test system: H358 cells
Assay: Cell activity experiment: activity test of H358 cells (MTT, 5 days)
Format: cell-based
Conditions: Homo sapiens, NCI-H358, 120 h, 5 days incubation, absorbance 492 nm
value.type: log10 of IC50 (log10 of the value in nM)
Kindly note that the scale is log10 and the underlying IC50 is in nM.

Examples with answers:
C=CC(=O)N1CCN(c2nc(OCC34CCCN3CCC4)nc3cc(-c4cccc5c4CCCC5)c(Cl)cc23)C[C@@H]1CC#N: 1.70
C=C(F)C(=O)N1CCN(c2nc(OC[C@@H]3C[C@@H](F)CN3C)nc3cc(-c4cncc5c4CCCC5)ccc23)C[C@@H]1CC#N: 2.01
C=CC(=O)N1CCN(c2nc(OCC34CCCN3CCC4)nc3c(F)c(-c4cccc5c4CCCC5)ncc23)C[C@@H]1CC#N: 0.00
C=C(F)C(=O)N1CCN(c2nc(OC[C@@]34CCCN3C[C@H](F)C4)nc3c(F)c(-c4cncc5c4CCCC5)ncc23)C[C@@H]1CC#N: 1.48
C=CC(=O)N1CCN(c2nc(OCC34CCCN3CCC4)nc3cc(-c4cncc5c4CCCC5)ccc23)C[C@@H]1CC#N: 1.00

Turning to the following compound.
Q. Provide measured log10 of IC50 value, entry: "C=CC(=O)N1CCN(c2nc(OCC34CCCN3CCC4)nc3cc(-c4cccc5cccc(Cl)c45)ccc23)C[C@@H]1CC#N"
A. 0.74

---

System: H358 cells
Assay: Cell activity experiment: activity test of H358 cells (MTT, 5 days)
Type: cell-based
Settings: Homo sapiens, NCI-H358, 120 h, 5 days incubation, absorbance 492 nm
pIC50: −log10 of the molar value.
Quick rule: pIC50 of at least 8 means MET, below that means NOT MET.

Worked cases, answers included:
C=CC(=O)N1CC[C@@H]2[C@H]1CN2c1nc(OC[C@@H]2CCCN2C)nc2cc(-c3cccc4ccc(F)c(Cl)c34)ccc12 [Example 101]: MET
C=CC(=O)N1CCN(c2nc(OC[C@@]34CCCN3C[C@H](F)C4)nc3c(F)c(-c4cccc5cccc(Cl)c45)ccc23)C[C@@H]1CC#N [Example 367]: MET
C=C(F)C(=O)N1CCN(c2nc(OC[C@@]34CCCN3C[C@H](F)C4)nc3c(F)c(-c4cccc5cccc(Cl)c45)ccc23)C[C@@H]1CC#N [Example 904]: MET

Pending molecule:
Q. Record C=C(F)C(=O)N1CCN(c2nc(OC[C@@]34CCCN3C[C@H](F)C4)nc3c(OC4CC4)c(-c4cccc5ccc(F)c(Cl)c45)c(Cl)cc23)C[C@@H]1CC#N [Example 915] ; criterion: pIC50 no lower than 8. Met?
A. NOT MET

---

Target: KRAS G12C-GDP (Homo sapiens (Human), UniProt P01116, G12C)
Sequence (P01116-2 other isoform, or with tags, fused parts or gaps G12C): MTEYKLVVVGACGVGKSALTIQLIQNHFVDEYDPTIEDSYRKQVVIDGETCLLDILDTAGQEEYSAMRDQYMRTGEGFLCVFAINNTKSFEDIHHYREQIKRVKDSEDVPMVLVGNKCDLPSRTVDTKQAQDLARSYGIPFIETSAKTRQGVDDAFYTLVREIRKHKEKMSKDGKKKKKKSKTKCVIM
Assay: KRAS G12C-GDP exchange test (SOS/cRAF/GTP, HTRF)
Details: 1 h premix with compound, 2 h reaction with SOS, cRAF, GTP
Please respond with YES when measured IC50 is strictly beneath 2 nM, and with NO in all other cases.

Worked cases, answers included:
C=CC(=O)N1CCN(c2nc(OC[C@@H]3CCCN3C)nc3cc(-c4cccc5ccc(F)c(Cl)c45)cnc23)C[C@@H]1CC#N: NO
C=CC(=O)N1CCN(c2nc(OC[C@@H]3CCCN3C)nc3c(F)c(-c4cccc5cccc(Cl)c45)ccc23)C[C@@H]1CC#N: NO
C=CC(=O)N1CCN(c2nc(OC[C@@H]3CCCN3C)nc3c(F)c(-c4cccc5c4CC4CC54)ccc23)C[C@@H]1CC#N (single isomer, unassigned): YES
C=C(F)C(=O)N1CCN(c2nc(OC[C@@]34CCCN3C[C@H](F)C4)nc3c(F)c(-c4cccc5cccc(Cl)c45)ccc23)C[C@@H]1CC#N: YES
C=CC(=O)N1CCN(c2nc(OC[C@@H]3CCCN3C)nc3cc(-c4cccc5cccc(Cl)c45)c(Cl)cc23)C[C@@H]1CC#N: NO

Q. Is it true that IC50 reported for C=C(F)C(=O)N1CCN(c2nc(OC[C@@]34CCCN3C[C@H](F)C4)nc3c(F)c(-c4cccc5c4CC4CC54)ncc23)C[C@@H]1CC#N (single isomer, unassigned) is less than 2 nM?
A. YES

---

Answer each item with its documented pIC50.
Test system: H358 cells
Assay: Cell activity experiment: activity test of H358 cells (MTT, 5 days)
Type: cell-based
Conditions: Homo sapiens, NCI-H358, 120 h, 5 days incubation, absorbance 492 nm
Numbers only, as −log10 of the molar value.

Examples with answers:
C=C(F)C(=O)N1CCN(c2nc(OC[C@@]34CCCN3CC(F)C4)nc3cc(-c4cccc5cccc(Cl)c45)ccc23)C[C@@H]1CC#N (stereo partly drawn): 8.00
C=CC(=O)N1CCN(c2nc(OC[C@@H]3CCCN3C)nc3c(F)c(-c4cccc5ccc(F)c(Cl)c45)c(F)cc23)C[C@@H]1CC#N: 6.83

Turning to the following compound.
Q. Provide measured pIC50 value, entry: "C=CC(=O)N1CCN(c2nc(OC[C@@H]3C[C@@H](F)CN3C)nc3cc(-c4cccc5cccc(Cl)c45)ccc23)C[C@@H]1CC#N"
A. 7.70

---

System: H358 cells
Test: Cell activity experiment: activity test of H358 cells (MTT, 5 days)
Type: cell-based
Settings: Homo sapiens, NCI-H358, 120 h, 5 days incubation, absorbance 492 nm
value.type: pIC50
Give bare numbers, as −log10 of the molar value.

Batch of 2 compounds: report pIC50 for each.
1. C=CC(=O)N1CCN(c2nc(OCC34CCCN3CCC4)nc3c(F)c(-c4cccc5ccc(F)c(Cl)c45)ccc23)C[C@@H]1CC#N
2. C=CC(=O)N1CC[C@@H]2[C@H]1CN2c1nc(OC[C@@H]2CCCN2C)nc2cc(-c3cccc4cccc(Cl)c34)ccc12

A.
[8.70, 8.22]

Batch of 8 compounds: report pIC50 for each.
1. C=CC(=O)N1CCN(c2nc(OC[C@@]34CCCN3C[C@H](F)C4)nc3c(F)c(-c4cncc5c4CCCC5)ncc23)C[C@@H]1CC#N
2. C=CC(=O)N1CCN(c2nc(OC[C@@H]3CCCN3C)nc3cc(-c4cncc5cccc(Cl)c45)ccc23)C[C@@H]1CC#N
3. C=C(F)C(=O)N1CCN(c2nc(OC[C@@H]3CCCN3C)nc3cc(-c4cncc5cccc(Cl)c45)ccc23)C[C@@H]1CC#N
4. C=CC(=O)N1CCN(c2nc(OC[C@@H]3C[C@@H](F)CN3C)nc3cc(-c4cccc5cccc(Cl)c45)c(Cl)cc23)C[C@@H]1CC#N
5. C=C(F)C(=O)N1CC[C@@H]2[C@H]1CN2c1nc(OC[C@@H]2CCCN2C)nc2c(F)c(-c3cccc4c3CCCC4)ncc12
6. C=C(F)C(=O)N1CCN(c2nc(OC[C@@H]3CCCN3C)nc3c(OC4CC4)c(-c4cccc5ccc(F)c(Cl)c45)c(Cl)cc23)C[C@@H]1CC#N
7. C=C(F)C(=O)N1CCN(c2nc(OCC34CCCN3CCC4)nc3c(F)c(-c4cncc5cccc(Cl)c45)ccc23)C[C@@H]1CC#N
8. C=C(F)C(=O)N1CCN(c2nc(OCC34CCCN3C[C@H](F)C4)nc3cc(-c4cccc5c4CCCC5)ccc23)C[C@@H]1CC#N (stereo partly drawn)

A.
1. 8.10
2. 7.74
3. 7.14
4. 7.12
5. 7.22
6. 7.31
7. 8.30
8. 7.52

Batch of 2 compounds: report pIC50 for each.
1. C=C(F)C(=O)N1CCN(c2nc(OCC34CCCN3CCC4)nc3c(F)c(-c4cccc5c4C4CC4C5)ncc23)C[C@@H]1CC#N (stereo partly drawn)
2. C=C(F)C(=O)N1CCN(c2nc(OC[C@@]34CCCN3C[C@H](F)C4)nc3c(F)c(-c4cccc5c4C4CC4C5)ncc23)C[C@@H]1CC#N (stereo partly drawn)

A.
1: 8.10; 2: 9.48
